- Measurement Target: T1, E. coli alkaline phosphatase Strep-tag®II fusion protein (E. coli, UniProt P00634 22-471 = phosphatase)
- T1 construct: mature; also called BAP-StrepII; BAP-StrepIII
- T1 sequence (P00634 22-471): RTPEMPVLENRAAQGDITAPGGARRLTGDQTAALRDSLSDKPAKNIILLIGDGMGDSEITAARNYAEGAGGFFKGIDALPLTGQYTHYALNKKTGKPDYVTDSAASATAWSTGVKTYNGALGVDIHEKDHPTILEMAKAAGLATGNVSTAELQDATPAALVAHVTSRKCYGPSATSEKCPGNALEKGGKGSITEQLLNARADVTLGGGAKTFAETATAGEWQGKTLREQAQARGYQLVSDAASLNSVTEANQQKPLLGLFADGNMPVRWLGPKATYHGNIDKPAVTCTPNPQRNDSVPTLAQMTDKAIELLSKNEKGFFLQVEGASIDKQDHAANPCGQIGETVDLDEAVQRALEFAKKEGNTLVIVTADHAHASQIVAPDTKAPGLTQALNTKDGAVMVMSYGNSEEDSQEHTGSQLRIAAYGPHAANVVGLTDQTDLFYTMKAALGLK
- Assay Overview: ELISA, mutein coated, BAP-StrepII titrated
Experimental Endpoint: (Δ(A405-A595)/Δt)max (mOD)
Give a bare numeral; the unit mOD is implied.

{"columns": ["Binder", "(Δ(A405-A595)/Δt)max [mOD]"],
 "data": [
  ["mutein“1”-m212 (designed binder, Library 6 clone on mutein “1”, 118 and 119 deleted) EAGITGTWYNQLGSTFIVTAGADGALTGTYVTARGNAESRYVLTGRYDSAPATDGSGTALGWTVAWKNNYRNAHSATTWSGQYVGGAEARINTQWLLTSGTTEHWLSTLVGHDTFTKVKPSAAS", 607]
]}

Record mutein“1”-m4 (designed binder, Library 3 clone on mutein “1”) EAGITGTWYNQLGSTFIVTAGADGALTGTYVTARGNAESRYVLTGRYDSAPATDGSGTALGWTVAWKNNYRNAHSATTWSGQYVGGAEARINTQWLLTSGTTEDNAGFSTLVGHDTFTKVKPSAAS . Reported (Δ(A405-A595)/Δt)max: 716

Record mutein“1”-m302 (designed binder, Library 7 clone on mutein “1”, 118 and 119 deleted) EAGITGTWYNQLGSTFIVTAGADGALTGTYVTARGNAESRYVLTGRYDSAPATDGSGTALGWTVAWKNNYRNAHSATTWSGQYVGGAEARINTQWLLTSGTTEHWYSTLVGHDTFTKVKPSAAS . Reported (Δ(A405-A595)/Δt)max: 726

Record mutein“1”-m45 (designed binder, Library 3 clone on mutein “1”) EAGITGTWYNQLGSTFIVTAGADGALTGTYVTARGNAESRYVLTGRYDSAPATDGSGTALGWTVAWKNNYRNAHSATTWSGQYVGGAEARINTQWLLTSGTTEYNAGFSTLVGHDTFTKVKPSAAS . Reported (Δ(A405-A595)/Δt)max: 566

Measured values drawn from patent US20210139545A1 for this set.
